This listing pairs compounds with measured IC50.
Target: human LPAR1 (Homo sapiens)
Construct: expressed in transfected cells
Test: Test Example 1: antagonism against response of LPA-induced increase in intracellular Ca2+ concentration in RH7777 cells stably expressing human LPAR1
Type: cell-based
Conditions: RH7777 cells stably expressing human LPAR1; Fluo-4 fluorescence, FDSS6000; read-out: IC50 value (concentration producing 50% antagonism against response of LPA-induced increase in intracellular Ca2+ concentration) (converted)
Write it as a number; the unit nM goes unstated.

# COMPOUND, OUTCOME_MEASURE, OBS_VALUE
data = [
    ("CCOc1cc([C@@H](C)N(CCCCc2ccccc2)C(=O)NC2(C(=O)O)CC(OCC)C2)cc(OCC)c1C(C)=O (stereo partly shown) [Example 1-95]", "IC50", 3.09),
]

Noted for CCOc1cc([C@@H](C)N(CCCCc2ccccc2)C(=O)NC2CC(C(=O)O)N(C(C)=O)C2)cc(OCC)c1C(C)=O (stereo partly shown) [Example 1-164] : its IC50 reads 38.4

Briefly, IC50 measured for CCOc1cc(C(C)N(CCCCc2ccccc2)C(=O)NC2(CC(=O)O)CCCC2)cc(OCC)c1C (stereo not shown) [Example 1-146] : 24.3

For reference, reported IC50 for CCOc1c(C(C)=O)ccc([C@@H](C)N(CCO[C@H](C)c2ccccc2)C(=O)NC2(C(=O)O)CC2)c1C [Example 4-147] stands at 11.6

----------
Recorded IC50 by entry
Biological target: human LPAR1 (Homo sapiens)
Construct: expressed in transfected cells
Assay: Test Example 1: antagonism against response of LPA-induced increase in intracellular Ca2+ concentration in RH7777 cells stably expressing human LPAR1
Type: cell-based
Settings: RH7777 cells stably expressing human LPAR1; Fluo-4 fluorescence, FDSS6000; read-out: IC50 value (concentration producing 50% antagonism against response of LPA-induced increase in intracellular Ca2+ concentration) (converted)
// return the numeric value with its unit appended

Some compounds with recorded IC50:
# COMPOUND, ASSAY_SYSTEM, IC50
data = [
    ("CCOc1cc([C@@H](C)N(CCO[C@@H](C)c2ccccc2)C(=O)N[C@]2(C(=O)O)C[C@@H](OC)C2)c(Cl)c(OCC)c1C(C)=O [Example 5-28]", "human LPAR1 (Homo sapiens)", "2.31 nM"),
    ("CCOc1cc([C@@H](C)N(CCCC(F)(F)c2ccccc2)C(=O)NC2(C(=O)O)CCC2)cc(OCC)c1C(C)O (stereo partly shown) [Example 4-53]", "human LPAR1 (Homo sapiens)", "1.72 nM"),
    ("CCOc1cc([C@@H](C)N(CCCCc2ccccc2)C(=O)NC2(C(=O)O)CC3(CCC3)C2)cc(OCC)c1C [Example 1-121]", "human LPAR1 (Homo sapiens)", "9.23 nM"),
    ("CCOc1cc(C(C)N(CCCCc2ccccc2)C(=O)NC2(C(=O)O)CC(F)(F)C2)cc(OCC)c1S(C)(=O)=O (stereo not shown) [Example 1-57]", "human LPAR1 (Homo sapiens)", "26.6 nM"),
    ("CCOC(=O)C1(NC(=O)N(CCO[C@@H](C)c2ccccc2)C(C)c2cc(OCC)c(C(C)=O)c(OCC)c2Cl)CC1 (stereo partly shown) [Example 6-8]", "human LPAR1 (Homo sapiens)", "2840 nM"),
    ("CCOc1cc(C(C)N(CCO[C@@H](C)c2ccccc2)C(=O)NC2(C(=O)OC(C)(C)C)CC(F)(F)C2)cc(OCC)c1C(C)=O (stereo partly shown) [Example 6-16]", "human LPAR1 (Homo sapiens)", "13000 nM"),
]

With those in mind, consider the next compound.
Form: compound = CC(c1cc(Cl)cc(Cl)c1F)N(CCCCc1ccccc1)C(=O)NC1(C(=O)O)CC(F)(F)C1 (stereo not shown) [Example 1-80] ; IC50 = 13.1 nM

----------
Biological target: human LPAR1 (Homo sapiens, UniProt Q92633)
Construct: expressed in transfected cells
Sequence (Q92633 whole entry): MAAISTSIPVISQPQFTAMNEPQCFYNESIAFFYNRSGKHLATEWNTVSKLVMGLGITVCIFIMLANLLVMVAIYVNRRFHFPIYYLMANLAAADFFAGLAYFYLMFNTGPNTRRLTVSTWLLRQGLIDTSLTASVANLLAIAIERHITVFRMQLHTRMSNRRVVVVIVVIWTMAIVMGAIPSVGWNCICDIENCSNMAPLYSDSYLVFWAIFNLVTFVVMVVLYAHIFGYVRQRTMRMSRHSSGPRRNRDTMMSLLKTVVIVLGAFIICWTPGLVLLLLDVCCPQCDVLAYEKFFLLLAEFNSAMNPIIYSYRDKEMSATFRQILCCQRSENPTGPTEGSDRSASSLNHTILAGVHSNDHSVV
Experiment: Test Example 1: antagonism against response of LPA-induced increase in intracellular Ca2+ concentration in RH7777 cells stably expressing human LPAR1
Assay type: cell-based
Settings: RH7777 cells stably expressing human LPAR1; Fluo-4 fluorescence, FDSS6000; read-out: IC50 value (concentration producing 50% antagonism against response of LPA-induced increase in intracellular Ca2+ concentration) (converted)
Below, each entry is listed alongside its reported log10 IC50.
Hello, just confirming the data are log10 of IC50 with units of nM.

# COMPOUND, ASSAY_SYSTEM, log10 IC50
records = [
    ("CCOc1cc([C@@H](C)N(CCCC(F)(F)c2ccccc2)C(=O)NC2(C(=O)O)CC(F)(F)C2)cc(OCC)c1C1(O)CC1", "human LPAR1 (Homo sapiens, UniProt Q92633)", 0.65),
]

Noted log10 IC50 for CCOc1cc(C(C)N(CCCCc2ccccc2)C(=O)NC2(C(=O)O)CC(F)(F)C2)cc(F)c1C(C)=O (stereo not drawn) , tested on human LPAR1 (Homo sapiens, UniProt Q92633): 0.54

Entry "CCOc1c(C(C)=O)ccc([C@@H](C)N(CCCC(F)(F)c2ccccc2)C(=O)NC2(C(=O)O)CC(F)(F)C2)c1C" , human LPAR1 (Homo sapiens, UniProt Q92633) data, log10 IC50 value: 0.46

Query CCOc1cc(C(C)N(CCO[C@@H](C)c2ccccc2)C(=O)NC2(C(=O)OC(C)(C)C)CC(F)(F)C2)c(Cl)c(OCC)c1C(C)=O (stereo partly drawn) on human LPAR1 (Homo sapiens, UniProt Q92633); log10 IC50 returned: 4.01

Response field log10 IC50 (human LPAR1 (Homo sapiens, UniProt Q92633)) for item "CCOc1cc([C@@H](C)N(CCc2ccc(Cl)cc2)C(=O)NC2(C(=O)O)CC(F)(F)C2)cc(OCC)c1C" : 2.10

So the reported log10 IC50 for CCOc1cc(C(C)N(CCO[C@@H](C)c2ccccc2)C(=O)NC2(C(=O)O)CC(OCC)C2)c(Cl)c(OCC)c1C1CC1 (stereo partly drawn) [Example 5-222] , on human LPAR1 (Homo sapiens, UniProt Q92633), turned out to be 0.25

----------
Target: human LPAR1 (Homo sapiens, UniProt Q92633)
Construct: expressed in transfected cells
Experiment: Test Example 1: antagonism against response of LPA-induced increase in intracellular Ca2+ concentration in RH7777 cells stably expressing human LPAR1
Format: cell-based
Conditions: RH7777 cells stably expressing human LPAR1; Fluo-4 fluorescence, FDSS6000; read-out: IC50 value (concentration producing 50% antagonism against response of LPA-induced increase in intracellular Ca2+ concentration) (converted)
Listing of entries alongside the reported IC50.
I only need the number, in nM, no unit after it.

# MOLECULE, ASSAY_SYSTEM, UNITS_OF_MEASURE, IC50
data = [
    ("CCOc1cc(C(C)N(CCCCc2ccccc2)C(=O)NC2(C(=O)O)CC(F)(F)C2)cc(OCC)c1C(F)F (stereo not shown) [Example 1-51]", "human LPAR1 (Homo sapiens, UniProt Q92633)", "nM", 3.52),
    ("CCOc1cc(C(C)N(CCCCc2ccccc2)C(=O)NC2CCC(C(=O)O)CC2)cc(OCC)c1C (stereo not shown) [Example 1-143]", "human LPAR1 (Homo sapiens, UniProt Q92633)", "nM", 200),
    ("CCOc1cc([C@@H](C)N(CCC(F)(F)Cc2ccccc2)C(=O)NC2(C(=O)O)CC(OC)C2)c(C)c(OCC)c1C (stereo partly shown) [Example 5-77]", "human LPAR1 (Homo sapiens, UniProt Q92633)", "nM", 14),
    ("COc1cc(C(CO)N(CCCCc2ccccc2)C(=O)NC2(C(=O)O)CC(F)(F)C2)cc(OC)c1C (stereo not shown) [Example 3-6]", "human LPAR1 (Homo sapiens, UniProt Q92633)", "nM", 7.07),
    ("CCOC1CC(NC(=O)N(CCOCc2ccccc2)C(C)c2cc(OC)c(C3CC3)c(OC)c2)(C(=O)O)C1 (stereo not shown) [Example 5-162]", "human LPAR1 (Homo sapiens, UniProt Q92633)", "nM", 3.66),
    ("CCOc1cc([C@@H](C)N(CCCCc2ccccc2C)C(=O)NC2(C(=O)O)CC(F)(F)C2)cc(OCC)c1C [Example 4-15]", "human LPAR1 (Homo sapiens, UniProt Q92633)", "nM", 32.7),
]

Turning now to a further molecule:
Recorded IC50 (molecule CCOc1c(C2CC2)ccc([C@@H](C)N(CCO[C@@H](C)c2ccccc2)C(=O)NC2(C(=O)O)CCC2)c1C [Example 4-166] ): 2.02

----------
Parameter IC50: see the listing below.
Biological target: human LPAR1 (Homo sapiens)
Construct: expressed in transfected cells
Test: Test Example 1: antagonism against response of LPA-induced increase in intracellular Ca2+ concentration in RH7777 cells stably expressing human LPAR1
Assay type: cell-based
Conditions: RH7777 cells stably expressing human LPAR1; Fluo-4 fluorescence, FDSS6000; read-out: IC50 value (concentration producing 50% antagonism against response of LPA-induced increase in intracellular Ca2+ concentration) (converted)

Example results:
# MOLECULE, ASSAY_SYSTEM, IC50
records = [
    ("CCOc1cc(C(C)N(CCO[C@@H](C)c2ccccc2)C(=O)NC2(C(=O)OC)CC(F)(F)C2)cc(OCC)c1C(C)=O (stereo partly drawn) [Example 6-6]", "human LPAR1 (Homo sapiens)", "435 nM"),
    ("CCNc1cc([C@@H](C)N(CCCCc2ccccc2)C(=O)NC2(C(=O)O)CC(F)(F)C2)cc(OCC)c1C#N [Example 5-115]", "human LPAR1 (Homo sapiens)", "2.34 nM"),
    ("CCOc1cc(C(C)N(CCCCc2ccccc2)C(=O)NC2(C(=O)O)CCCC2)cc(OC(C)C)c1C (stereo not drawn) [Example 1-114]", "human LPAR1 (Homo sapiens)", "128 nM"),
]

The recorded IC50 for COc1cc(C(C)N(CCOCc2ccccc2)C(=O)NC2(C(=O)O)CCOCC2)cc(OC)c1C1CC1 (stereo not drawn) [Example 5-173] is 34.7 nM

Summary for this molecule, COc1cc(C(C)N(CCOCc2ccccc2)C(=O)NC2(C(=O)O)CC(F)(F)C2)c(C)c(OC)c1C (stereo not drawn) [Example 5-147] : IC50 is 3.62 nM

// sample CCOc1cc(C(C)N(CCCCc2ccccc2)C(=O)NC2(C(=O)O)CC(F)(F)C2)cc(OCC)c1C1(O)CC1 (stereo not drawn) [Example 1-37] , its IC50 was 3.45 nM

Just so you know, measured IC50 for CCOc1cc([C@@H](C)N(CCOCc2ccccc2)C(=O)NC2(C(=O)O)CCC2)cc(OCC)c1C(C)=O [Example 4-101] came out at 1.25 nM

Short answer for CCOc1cc([C@@H](C)N(CCCC(F)(F)c2ccccc2)C(=O)NC2(C(=O)O)CC(F)(F)C2)cc(OCC)c1C1CC1 [Example 4-59] : IC50 was 1.62 nM

Record CCOc1cc([C@@H](C)N(CCC(F)(F)Cc2ccccc2)C(=O)NC2(C(=O)O)CCC2)cc(OCC)c1C(C)=O [Example 4-81] , field IC50: 7.89 nM
